targetEntity: T1, recombinant mf IL1RAP aa21-367 (cynomolgus monkey (Macaca fascicularis), UniProt A0A2K5X5J5 21-367)
T1 construct: also called cynomolgus monkey IL1RAP; cyno IL1RAP
T1 sequence: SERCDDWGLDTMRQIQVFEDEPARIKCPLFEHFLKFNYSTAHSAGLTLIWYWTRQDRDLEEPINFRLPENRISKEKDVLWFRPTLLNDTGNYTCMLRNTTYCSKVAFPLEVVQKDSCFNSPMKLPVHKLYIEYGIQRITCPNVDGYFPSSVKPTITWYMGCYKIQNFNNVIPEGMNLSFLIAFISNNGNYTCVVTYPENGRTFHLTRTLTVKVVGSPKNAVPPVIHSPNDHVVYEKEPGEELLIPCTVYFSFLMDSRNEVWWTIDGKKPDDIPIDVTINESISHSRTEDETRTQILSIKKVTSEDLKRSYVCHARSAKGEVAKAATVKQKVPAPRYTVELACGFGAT
methodSummary: binding ELISA, coated recombinant mf IL1RAP aa21-367
assayReadout: IC50 (µg/mL)
The figure you give is taken to be in µg/mL; do not add the unit.

h48D2 VH5:VL3 (antibody, human IgG1, kappa, L234A L235A, V domains shown, Humanized; also called VL3:VH5) VH: QEQLEESGGGLVKPGGTLSLTCTVSGPSLSHFDITWIRQAPGSGLEWIGTISPGVSTYYASWAKSRVTISVDTSLNTVSLKLSSVTAADTATYFCARGGVGSSWKAFDLWGPGTLVTISS VL: DILLTQTPSVVSASVGDRVTITCQASESISTALAWYQQKPGQAPRLLIYKASTLPSGVPSRFRGSGSGTDFTLTITSLQPEDFATYYCQQGFSSGNVHNAFGGGTRLEIKR :: 0.0288

Ask | Sample h48D2 VH4:VL4 (antibody, human IgG1, kappa, L234A L235A, V domains shown, Humanized; also called VL4:VH4) VH: QVQLQESGPGLVKPSETLSLTCTVSGPSLSHFDITWIRQPPGKGLEWIGTISPGVSTYYASWAKSRFTISVDTSKNQFSLKLTSVTAADTATYYCARGGVGSSWKAFDLWGPGTLVTVSS VL: ELVMTQSPSSVSASVGDRVTITCQASESISTALAWYQQKPGKAPKLLIYKASTLPSGVPSRFSGSGSGTDFTLTINSLQPEDFATYYCQQGFSSGNVHNAFGGGTKVEIKR — what was its IC50?
Reply | 0.0251

Ask | Sample h48D2 VH4:VL5 (antibody, human IgG1, kappa, L234A L235A, V domains shown, Humanized; also called VL5:VH4) VH: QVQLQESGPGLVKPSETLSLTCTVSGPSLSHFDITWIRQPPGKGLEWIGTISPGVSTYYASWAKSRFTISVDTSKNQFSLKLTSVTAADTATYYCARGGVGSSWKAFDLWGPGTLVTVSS VL: APVLTQSPATLEASVGDRVTITCQASESISTALAWYQQKPGQPPKLLIYKASTLPSGVPSRFSGSGSGTEFTLTISDLESDDAATYYCQQGFSSGNVHNAFGGGTEVVVKR — what was its IC50?
Reply | 0.0244
